Tested on: Escherichia coli
Assay: Effect on DNA cleavage in ampicillin resistant Escherichia coli DH5alpha transformed pBluescript 2 KS+ DNA assessed as number of colonies at 1 mM after 15 hrs by transformation assay
Reported Activity values for the following compounds.

The examples below pair each entry with its known result.
compound | measurement target | Activity
COCc1ccccc1C#CC#Cc1cc(CN(C)C)sc1C(=O)C#CC#CC(C)(C)C | Escherichia coli | 8
CN(C)C | Escherichia coli | > 1000
COCc1ccccc1C#CC#Cc1cc(CN(C)C)sc1C(O)C#CC#CC(C)(C)C (stereo not given) | Escherichia coli | > 1000
COCc1ccccc1C#CC#Cc1cc(C(=O)O)sc1C(O)C#CC#CC(C)(C)C (stereo not given) | Escherichia coli | > 1000

Below: the item to evaluate.
Exam item: What value of measured Activity is listed for COCc1ccccc1C#CC#Cc1cc(C(=O)O)sc1C(=O)C#CC#CC(C)(C)C ?
Marked response: > 1000
